Sourced from ChEMBL document CHEMBL1144850

# Test details: Inhibition of calf tubulin polymerization
# Design: species or system Bos taurus
pIC50: −log10 of the molar value.
# label = 1 if pIC50 >= 5 else 0

| Molecule | Label value |
| --- | --- |
| COc1cc(/C=C\c2cc(N)c(OC)c(N)c2)cc(OC)c1OC.Cl.Cl | 0 |
| COc1cc(N)c(/C=C\c2cc(OC)c(OC)c(OC)c2)cc1[N+](=O)[O-] | 0 |
| COc1cc(/C=C/c2ccc(OC)c([N+](=O)[O-])c2[N+](=O)[O-])cc(OC)c1OC | 0 |
| COc1cc([N+](=O)[O-])c(/C=C\c2cc(OC)c(OC)c(OC)c2)cc1[N+](=O)[O-] | 0 |
| COc1cc([N+](=O)[O-])c(/C=C\c2cc(OC)c(OC)c(OC)c2)cc1N | 0 |
| COc1ccc(/C=C\c2cc(OC)c(OC)c(OC)c2)c(O)c1O [COMBRETASTATIN A-1] | 1 |
| COc1cc(/C=C\c2ccc(OC)c([N+](=O)[O-])c2[N+](=O)[O-])cc(OC)c1OC | 0 |
| COc1cc(/C=C\c2cc(NC(=O)[C@@H](N)CO)c(OC)c(NC(=O)[C@@H](N)CO)c2)cc(OC)c1OC | 0 |
| COc1cc([N+](=O)[O-])c(/C=C/c2cc(OC)c(OC)c(OC)c2)cc1[N+](=O)[O-] | 0 |
| COc1cc(/C=C/c2cc([N+](=O)[O-])c(OC)c([N+](=O)[O-])c2)cc(OC)c1OC | 0 |
| COc1cc(N)c(/C=C\c2cc(OC)c(OC)c(OC)c2)cc1N | 0 |

====

# Test system: SF-268
# Test details: Cytotoxicity against human SF268 cells after 48 hrs by SRB assay
# Format: functional
# Condition info: Homo sapiens, SF-268, 48 h
molecules and their reported GI50

| Entry smiles | Prefix operator | GI50 (µM) |
| --- | --- | --- |
| COc1ccc(/C=C\c2cc(OC)c(OC)c(OC)c2)c(N)c1N | = | 0.011 |
| COc1cc([N+](=O)[O-])c(/C=C/c2cc(OC)c(OC)c(OC)c2)cc1[N+](=O)[O-] | = | 1.7 |
| COc1cc(/C=C/c2ccc(OC)c([N+](=O)[O-])c2[N+](=O)[O-])cc(OC)c1OC | > | 10 |
| COc1cc([N+](=O)[O-])c(/C=C\c2cc(OC)c(OC)c(OC)c2)cc1[N+](=O)[O-] | = | 2.8 |
| COc1cc(/C=C\c2cc(N)c(OC)c(N)c2)cc(OC)c1OC | = | 1.5 |
| COc1cc(/C=C\c2cc([N+](=O)[O-])c(OC)c([N+](=O)[O-])c2)cc(OC)c1OC | = | 0.68 |
| COc1cc(N)c(/C=C\c2cc(OC)c(OC)c(OC)c2)cc1N | = | 0.55 |
| COc1cc([N+](=O)[O-])c(/C=C\c2cc(OC)c(OC)c(OC)c2)cc1N | = | 2.8 |
| COc1cc(/C=C/c2cc([N+](=O)[O-])c(OC)c([N+](=O)[O-])c2)cc(OC)c1OC | > | 10 |
| COc1cc(/C=C\c2ccc(OC)c([N+](=O)[O-])c2[N+](=O)[O-])cc(OC)c1OC | = | 2.5 |
